I'd be grateful if you could share measured koff for these entries.
Target: T1, IL-2 (UniProt P60568 21-153)
T1 construct: also called interleukin 2
T1 sequence (P60568 21-153 limits assumed): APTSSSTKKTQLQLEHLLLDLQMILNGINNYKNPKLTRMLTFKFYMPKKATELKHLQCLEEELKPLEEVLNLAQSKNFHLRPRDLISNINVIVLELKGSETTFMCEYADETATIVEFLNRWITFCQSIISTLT
Test: SPR
Your answer is read as s⁻¹, so omit the unit and give the number.

Qu. What does the data say about its koff? Entry: VHH1 (VHH, In the functional rows it stood as the masking moiety of constructs C7, C2, C4 and C6, fused to an Fc chain; also called Parental; parental anti-IL-2) VHH: EVQLVESGGGLVQPGGSLRLSCAASGSIFSINVMGWYRQAPGKQRELVAAISSGGSTNYADSVKGRFTISRDNAKNTVYLQMNSLKPEDTAVYYCMYASSWYEDETDYWGQGTQVTVSS
Ans. 3.28e-05

Qu. Fill in: koff of VHH12 (VHH, In the functional rows it stood as the masking moiety of constructs C13 and C1; also called Q44G, M96A, W101Y) VHH: EVQLVESGGGLVQPGGSLRLSCAASGSIFSINVMGWYRQAPGKGRELVAAISSGGSTNYADSVKGRFTISRDNAKNTVYLQMNSLKPEDTAVYYCAYASSYYEDETDYWGQGTQVTVSS is ___
Ans. 3.97

Qu. Any idea what its koff is? The binder is VHH26 (VHH, In the functional rows it stood as the masking moiety of construct C10; also called I31S, M96A, W101Y) VHH: EVQLVESGGGLVQPGGSLRLSCAASGSIFSSNVMGWYRQAPGKQRELVAAISSGGSTNYADSVKGRFTISRDNAKNTVYLQMNSLKPEDTAVYYCAYASSYYEDETDYWGQGTQVTVSS
Ans. 0.00427

Qu. Return reported koff; argument: VHH6 (VHH, In the functional rows it stood as the masking moiety of construct C8; also called Q44G) VHH: EVQLVESGGGLVQPGGSLRLSCAASGSIFSINVMGWYRQAPGKGRELVAAISSGGSTNYADSVKGRFTISRDNAKNTVYLQMNSLKPEDTAVYYCMYASSWYEDETDYWGQGTQVTVSS
Ans. 2.18e-06

Qu. Which koff reading was recorded for the binder VHH7 (VHH, In the functional rows it stood as the masking moiety of construct C9; also called Q44G, R45L) VHH: EVQLVESGGGLVQPGGSLRLSCAASGSIFSINVMGWYRQAPGKGLELVAAISSGGSTNYADSVKGRFTISRDNAKNTVYLQMNSLKPEDTAVYYCMYASSWYEDETDYWGQGTQVTVSS ?
Ans. 0.000111

Qu. GET /values?readout=koff&item= VHH36 (VHH, In the functional rows it stood as the masking moiety of construct C11; also called I31S, Q44G, R45L, M96A, W101Y) VHH: EVQLVESGGGLVQPGGSLRLSCAASGSIFSSNVMGWYRQAPGKGLELVAAISSGGSTNYADSVKGRFTISRDNAKNTVYLQMNSLKPEDTAVYYCAYASSYYEDETDYWGQGTQVTVSS
Ans. 0.00237
